tested.target: T1, bacterially produced human IL-6 (Homo sapiens, UniProt P05231)
T1 construct: His
T1 sequence (P05231 30-212): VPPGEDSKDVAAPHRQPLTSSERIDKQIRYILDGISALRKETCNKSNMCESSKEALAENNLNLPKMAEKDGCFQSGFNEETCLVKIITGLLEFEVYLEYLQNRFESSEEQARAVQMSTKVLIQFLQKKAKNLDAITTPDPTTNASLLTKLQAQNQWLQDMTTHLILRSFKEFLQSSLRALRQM
procedure.details: Surface plasmon resonance (Biacore), bacterially produced human IL-6 coated on CM5 chip
Assay type: binding
assay.conditions: bact; periplasmic fractions, 28A6 chain-shuffled
Each entry below lists one item and its recorded KA value.
# number only, unit M⁻¹ dropped from output

Before answering, review these 3 worked examples.
48H1g2, R4: 28A6 chain-shuffled Fab, periplasmic fraction (antibody, V domains shown) VH: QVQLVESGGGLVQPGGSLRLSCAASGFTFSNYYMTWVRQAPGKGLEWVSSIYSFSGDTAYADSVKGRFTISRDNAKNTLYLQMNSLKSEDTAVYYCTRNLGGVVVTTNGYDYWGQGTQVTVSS VL: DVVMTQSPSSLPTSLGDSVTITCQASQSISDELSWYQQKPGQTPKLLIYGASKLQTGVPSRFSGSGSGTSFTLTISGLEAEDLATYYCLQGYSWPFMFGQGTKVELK : 2.93e+09
55E10g1: 28A6 chain-shuffled Fab, periplasmic fraction (antibody, V domains shown) VH: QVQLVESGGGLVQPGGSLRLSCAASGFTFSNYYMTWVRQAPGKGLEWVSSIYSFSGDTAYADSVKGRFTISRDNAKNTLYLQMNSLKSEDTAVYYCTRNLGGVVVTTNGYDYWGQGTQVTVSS VL: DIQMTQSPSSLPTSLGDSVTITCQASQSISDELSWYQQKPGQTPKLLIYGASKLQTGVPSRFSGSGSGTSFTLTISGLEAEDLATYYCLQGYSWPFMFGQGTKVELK : 3.18e+09
55C11f: 28A6 chain-shuffled Fab, periplasmic fraction (antibody, V domains shown) VH: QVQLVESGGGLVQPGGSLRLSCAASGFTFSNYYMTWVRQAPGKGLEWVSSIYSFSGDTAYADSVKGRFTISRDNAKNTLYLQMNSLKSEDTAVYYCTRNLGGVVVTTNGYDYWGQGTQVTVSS VL: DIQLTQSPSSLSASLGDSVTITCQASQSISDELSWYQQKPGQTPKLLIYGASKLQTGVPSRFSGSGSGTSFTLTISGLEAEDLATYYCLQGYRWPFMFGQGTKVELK : 3.29e+09

Any idea what KA was measured for 55A11d: 28A6 chain-shuffled Fab, periplasmic fraction (antibody, V domains shown) VH: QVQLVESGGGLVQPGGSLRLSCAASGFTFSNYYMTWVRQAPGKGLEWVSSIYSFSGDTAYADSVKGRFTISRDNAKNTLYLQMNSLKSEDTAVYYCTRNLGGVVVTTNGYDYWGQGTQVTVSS VL: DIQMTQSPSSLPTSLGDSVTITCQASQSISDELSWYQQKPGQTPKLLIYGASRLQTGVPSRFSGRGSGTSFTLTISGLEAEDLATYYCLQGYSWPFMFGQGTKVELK ?
2.78e+09
